Target: T1, canine NGF tagged at the C-terminus with the Flag tag (canine, UniProt A0A8I3PYI3 122-241)
T1 construct: mature; Expressed with baculovirus technology; also called feline NGF (processed form identical)
T1 sequence (A0A8I3PYI3 entry or part of it): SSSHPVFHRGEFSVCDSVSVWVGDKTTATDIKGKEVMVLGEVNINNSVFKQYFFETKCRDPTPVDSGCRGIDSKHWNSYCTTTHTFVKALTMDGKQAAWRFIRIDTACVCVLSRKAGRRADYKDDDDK
Assay: SPR off-rate assay, Fab-SASA on BSA chip
experimental readout: koff

# get_value(readout='koff', item= AHF17608 (Fab, V domains shown, not shown: small tags and cut ends) VH: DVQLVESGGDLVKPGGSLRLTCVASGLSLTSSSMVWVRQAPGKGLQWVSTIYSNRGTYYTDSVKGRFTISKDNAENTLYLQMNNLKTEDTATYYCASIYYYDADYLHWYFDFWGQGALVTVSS VL: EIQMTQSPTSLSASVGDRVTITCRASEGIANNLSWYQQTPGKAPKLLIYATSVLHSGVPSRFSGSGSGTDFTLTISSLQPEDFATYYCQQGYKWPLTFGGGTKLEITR )
≤ 1e-06 s⁻¹

Look up koff: AHF17595 (Fab, V domains shown, not shown: small tags and cut ends) VH: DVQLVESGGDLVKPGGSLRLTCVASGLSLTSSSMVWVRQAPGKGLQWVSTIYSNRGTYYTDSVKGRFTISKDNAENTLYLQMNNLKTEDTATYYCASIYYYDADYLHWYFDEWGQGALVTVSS VL: EIQMTQSPTSLSASVGDRVTITCRASEGIQNNLSWYQQTPGKAPKLLIYATSNLHSGVPSRFSGSGSGTDFTLTISSLQPEDFATYYCQQGYKWPLTFGGGTKLEITR
≤ 1e-06 s⁻¹

Could you tell me which koff is on file for AHF17601 (Fab, V domains shown, not shown: small tags and cut ends) VH: DVQLVESGGDLVKPGGSLRLTCVASGLSLTSSSMVWVRQAPGKGLQWVSTIYSNRGTYYTDSVKGRFTISKDNAENTLYLQMNNLKTEDTATYYCAQIYYYDADYLHWYFDEWGQGALVTVSS VL: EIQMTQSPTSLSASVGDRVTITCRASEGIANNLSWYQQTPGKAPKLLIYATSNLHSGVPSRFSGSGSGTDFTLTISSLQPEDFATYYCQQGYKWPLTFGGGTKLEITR ?
≤ 1e-06 s⁻¹
